Every entry's value here was drawn from patent US20250027068.

Target: pooled human IgG (human IgG1,2,3 and 4)
Measured property: Enzyme activity endpoint: Fab′2 (ng/µL)
Please give a number only; it is taken to be in ng/µL.

Form field Enzyme activity endpoint: Fab′2, entry PRT-645 (protein) MQITSVWTKGVTPLTPEQFRYNNEDVIHAPYLAHQGWYDITKAFDGKDNLLCGAATAGNMLHWWFDQNKTEIEAYLSKHPEKQKIIFNNQELFDLKAAIDTKDSQTNSQLFNYFRDKAFPNLSARQLGVMPDLVLDMFINGYYLNVFKTQSTDVNRPYQDKDKRGGIFDAVFTRGDQTTLLTARHDLKNKGLNDISTIIKQELTEGRALALSHTYANVSISHVINLWGADFNAEGNLEAIYVTDSDANASIGMKKYYVGYNKSGRVAISAYKITDENIGAQVLGLFTLSSGKDIWQKLSLEHHHHHH : 683
